Molecular target: T1, human Trop-2-His protein (human, UniProt P09758 27-274)
T1 construct: extracellular domain; Assay paragraphs say only 'Trop-2-His'; also called hTrop-2; Kactus Cat #TRP-HM121; not shown: His tag
T1 sequence (looked up): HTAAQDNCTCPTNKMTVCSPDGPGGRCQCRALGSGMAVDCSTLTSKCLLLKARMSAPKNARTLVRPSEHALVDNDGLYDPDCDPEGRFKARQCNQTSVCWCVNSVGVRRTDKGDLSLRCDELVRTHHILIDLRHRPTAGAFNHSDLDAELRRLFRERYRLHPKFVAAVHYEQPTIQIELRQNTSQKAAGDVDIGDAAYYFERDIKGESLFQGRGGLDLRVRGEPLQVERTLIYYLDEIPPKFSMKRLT
Test: BLI (Gator Prime), LEM supernatant Ab on HFC probe
Measurement Label: koff

1) 73C2 (antibody, V domains shown, Rabbit-derived clone; LEM construct: VH + rabbit IgG CH1 + human IgG1 CH2-CH3) VH: QSLEESGGGLVKPGGTLTLTCTVSGFDFSNYAVTWVRQAPGEGLEYIGFVGIYGDFYYANWAKGRFTISKTSSTTVTLQMPSLTVADTATYFCARGGLWTGNSYFDLWGPGTLVTVSS VL: YDMTQTPASVEVAVGGTVTINCQASESINRYLAWYQQKRGQPPKPLIYRAATLASGVPSRFKGSGSGTEYTLTISDLECADAATYYCQQGYGYSTVGNAFGGGTEVVVK | 0.0011 s⁻¹
2) 62A10 (antibody, V domains shown, Rabbit-derived clone; LEM construct: VH + rabbit IgG CH1 + human IgG1 CH2-CH3) VH: QSLVESGGGLVQPEGSLTLTCKASGFDFNNYAVTWVRQAPGEGLEYIGFIGIRGHIYYANWAKGRFTISKTSSTTMTLQMTSLTVADTATYFCARGGLWTGNSYFDLWGPGTLVTVSS VL: YDMTQTPASVEVAVGGTVTINCQASESISRYLAWYQQKPGQSPKPLIYRASTLASGVPSRFQGSGSGTEYTLTISDLECADAATYYCQQGYGYSTVDNAFGGGTEVVVK | 0.00051 s⁻¹

Origin of measurements: patent US20250206841A1
